# System Name: T1, Cynomolgus CD3εδ Fc heterodimer (Cy CD3ε Fc / CD3δ Fc-HIS) (cynomolgus, UniProt Q95LI8 22-100)
# T1 chain 1: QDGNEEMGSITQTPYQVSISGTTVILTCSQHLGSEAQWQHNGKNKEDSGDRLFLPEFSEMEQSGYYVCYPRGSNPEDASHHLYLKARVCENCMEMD
# T1 chain 2: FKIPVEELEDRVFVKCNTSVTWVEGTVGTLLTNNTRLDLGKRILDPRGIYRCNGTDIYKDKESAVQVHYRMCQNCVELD
# Experimental Protocol: BLI (Octet), IgG on AHC sensor, pH 6.0
Quantity Measured: koff (s⁻¹)
Express your answer in s⁻¹, writing the number without its unit.

[
  {
    "Binder": "SAD10319_P03_G09 (ADI-57300) (antibody, V domains shown, IgG; ADI-57300 is also printed for Ab234; also called Ab28) VH: QVQLVQSGAEVKKPGASVKVSCKASGYTFTSYDMHWVRQAPGQRLEWMGWIDPHTGATKYSQKFQGRVTITRDTSASTAYMELSSLRSEDTAVYYCARDAYGRYFYDHWGQGTLVTVSS VL: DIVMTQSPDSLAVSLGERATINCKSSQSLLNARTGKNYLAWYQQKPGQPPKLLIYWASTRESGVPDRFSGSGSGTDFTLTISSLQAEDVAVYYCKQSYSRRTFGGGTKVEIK",
    "Units Text": "s⁻¹",
    "koff": 0.0219
  },
  {
    "Binder": "SAD10320_P02_B05 (ADI-57364) (antibody, V domains shown, IgG; also called Ab75) VH: QVQLVQSGAEVKKPGASVKVSCKASGFNIKDYYMHWVRQAPGQRLEWMGWIDLENANTIYDAKFQGRVTITRDTSASTAYMELSSLRSEDTAVYYCARDAYGHNFYDVWGQGTLVTVSS VL: DIVMTQSPDSLAVSLGERATINCKSSQSLLNARTGKNYLAWYQQKPGQPPKLLIYWASTRESGVPDRFSGSGSGTDFTLTISSLQAEDVAVYYCKQSYTHRTFGGGTKVEIK",
    "Units Text": "s⁻¹",
    "koff": 0.00269
  }
]

Continue with the binder presented below.
Qu. # lookup: koff of SAD10320_P04_G10 (ADI-48658) (antibody, V domains shown, IgG; also called Ab108) VH: QVQLVQSGAEVKKPGASVKVSCKASGFNIKDYYMHWVRQAPGQRLEWMGWIDLENANTIYDAKFQGRVTITRDTSASTAYMELSSLRSEDTAVYYCARDAYGHDFYDVWGQGTLVTVSS VL: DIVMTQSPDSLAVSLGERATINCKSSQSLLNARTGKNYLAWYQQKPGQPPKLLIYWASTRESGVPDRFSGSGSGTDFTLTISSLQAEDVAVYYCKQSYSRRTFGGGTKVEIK
Ans. 0.0189
